Biological target: Polyunsaturated fatty acid lipoxygenase ALOX12 (Homo sapiens, UniProt P18054)
Sequence (P18054 whole entry): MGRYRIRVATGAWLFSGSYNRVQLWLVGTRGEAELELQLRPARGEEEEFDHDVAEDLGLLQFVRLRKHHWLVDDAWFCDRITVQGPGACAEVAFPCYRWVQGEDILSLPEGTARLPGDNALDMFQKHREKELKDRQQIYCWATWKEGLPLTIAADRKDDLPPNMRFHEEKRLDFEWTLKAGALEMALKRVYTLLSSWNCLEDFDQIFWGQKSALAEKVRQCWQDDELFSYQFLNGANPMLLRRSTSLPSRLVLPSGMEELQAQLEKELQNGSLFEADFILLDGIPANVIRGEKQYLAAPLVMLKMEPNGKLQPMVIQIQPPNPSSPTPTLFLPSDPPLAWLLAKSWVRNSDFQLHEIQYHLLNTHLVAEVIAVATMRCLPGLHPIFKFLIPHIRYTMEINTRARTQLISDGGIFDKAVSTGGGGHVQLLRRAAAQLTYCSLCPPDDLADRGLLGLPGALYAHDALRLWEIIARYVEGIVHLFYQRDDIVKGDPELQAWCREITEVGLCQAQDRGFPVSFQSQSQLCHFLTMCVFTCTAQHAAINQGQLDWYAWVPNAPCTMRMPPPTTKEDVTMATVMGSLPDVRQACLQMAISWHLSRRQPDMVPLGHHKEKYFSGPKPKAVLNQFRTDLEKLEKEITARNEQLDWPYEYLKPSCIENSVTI
Test: Mixed type inhibition of human platelet 12-lipoxygenase assessed as equilibrium inhibitor constant of dissociation from enzyme by measuring 12-HpETE formation in presence of 0.01% Triton-X-100 by Dixon plot based steady-state inhibition kinetics assay
Outcome Measure: Ki

{"Substance Smiles": "CCCCCC(=O)C=CC=CC/C=C\\C/C=C\\CCCC(=O)O", "Outcome Measure": "Ki", "Measured Result": "87 nM"}
